# t/2 diss listing for each entry below
- Test System: human tau(pS422) (Homo sapiens, UniProt P10636, S739X)
- Assay Protocol: BIAcore kinetic screening and kinetic rates of humanized VH/VL combinations
- Format: binding
- Particulars: 25 °C; VL17 or VL19 with VH variants
Give your result in min as a bare value.

VL17 with VH03: anti-human tau(pS422) antibody; VH SEQ ID NO: 48, VL SEQ ID NO: 37 (antibody, V domains shown, humanized sequence) VH: QSVLESGGGLVQPGGSLRLSCAVSGFSLSSNAINWVRQAPGKGLEWVGYIAVSGNTYYASWAKGRFTISRDNSKNTLYLQMNSLRAEDTAVYYCGKSNIWGPGTLVTVSS VL: DIQMTQSPSSLSASVGDRVTITCRSSQSVRTNKLAWFQQKPGQPPKRLIYSASTLDFGVPSRFSGSGSGTEFTLTISSLQPEDFATYYCLGYFDCSIADCVAFGGGTKVEIK : 3

Provide one value: measured t/2 diss of VL19 with VH19: anti-human tau(pS422) antibody; VH SEQ ID NO: 53, VL SEQ ID NO: 38 (antibody, V domains shown, humanized sequence) VH: QQLVESGGGLVQPGGSLRLSCAASGFSLSSNAINWVRQAPGKGLEWVGYIAVSGNTYYADSVKGRFTISKDNSKNTLYLQMNSLRAEDTAVYYCGKSNIWGQGTLVTVSS VL: AQVMTQSPSSLSASVGDRVTITCRSSQSVRTNKLAWFQQKPGQPPKRLIYSASTLDFGVPSRFSGSGSGTEFTLTISSLQPEDFATYYCLGYFDCSIADCVAFGGGTKVEIK
6
